These entries and their values trace back to PubChem BioAssay AID623911.

Biological target: G protein-activated inward rectifier potassium channel 2 (Homo sapiens) + G protein-activated inward rectifier potassium channel 1 (Homo sapiens) (UniProt P48051+P48549)
Sequence (P48051 whole entry, looked up): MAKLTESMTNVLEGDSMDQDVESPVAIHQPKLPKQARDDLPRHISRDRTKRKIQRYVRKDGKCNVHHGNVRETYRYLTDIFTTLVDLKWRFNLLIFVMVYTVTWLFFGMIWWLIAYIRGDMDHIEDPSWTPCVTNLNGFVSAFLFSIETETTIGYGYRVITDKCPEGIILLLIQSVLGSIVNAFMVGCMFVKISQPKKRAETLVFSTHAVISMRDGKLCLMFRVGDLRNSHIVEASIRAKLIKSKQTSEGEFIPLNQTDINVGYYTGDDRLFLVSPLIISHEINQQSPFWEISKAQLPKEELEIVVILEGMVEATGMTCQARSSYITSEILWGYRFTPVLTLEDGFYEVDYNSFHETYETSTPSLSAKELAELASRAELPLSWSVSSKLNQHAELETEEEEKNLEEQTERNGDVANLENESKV
Sequence (P48549 whole entry, looked up): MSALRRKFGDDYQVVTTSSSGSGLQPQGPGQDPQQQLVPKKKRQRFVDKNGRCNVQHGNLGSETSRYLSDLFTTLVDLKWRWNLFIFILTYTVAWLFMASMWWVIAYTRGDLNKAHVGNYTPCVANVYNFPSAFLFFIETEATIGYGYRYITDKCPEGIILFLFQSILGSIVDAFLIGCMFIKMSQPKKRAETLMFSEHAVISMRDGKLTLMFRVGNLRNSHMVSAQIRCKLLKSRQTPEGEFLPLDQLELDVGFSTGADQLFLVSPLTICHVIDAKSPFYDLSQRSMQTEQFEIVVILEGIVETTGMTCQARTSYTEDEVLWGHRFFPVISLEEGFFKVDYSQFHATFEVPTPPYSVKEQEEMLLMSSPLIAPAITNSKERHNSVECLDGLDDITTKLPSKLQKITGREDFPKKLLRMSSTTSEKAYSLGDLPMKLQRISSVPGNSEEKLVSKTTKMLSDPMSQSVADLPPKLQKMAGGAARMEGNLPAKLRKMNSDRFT
Experiment: GIRK1/2 thallium flux modulators, retest, confirmation, cell-based, HEK293 rmGlu8/hGIRK1/2, FluoZin-2 (AID 623911)
Settings: HEK293 rmGlu8/hGIRK1/2, thallium flux FluoZin-2; actives lie on both sides; glutamate co-added at its EC20 level
About 770 (37%) of roughly 2,100 compounds were called active. Some of the results follow.
As shown below, each of these compounds has a reported manual score value.
Response field accepts a number only; no unit should be typed.

>  <COMPOUND>
S=C(NCc1cccs1)Nc1cccc(Cl)c1

>  <OBSERVED RESULT>
1

$$$$
>  <COMPOUND>
COc1ccccc1NC(=O)c1ccc(S(=O)(=O)N2CCCC2)cc1

>  <OBSERVED RESULT>
0

$$$$
>  <COMPOUND>
CCOC(=O)c1ccccc1NC(=O)CSc1nnc(COc2ccccc2C)n1C

>  <OBSERVED RESULT>
-1

$$$$
>  <COMPOUND>
O=C(O)c1oc2ccccc2c1CSc1ccccn1

>  <OBSERVED RESULT>
0

$$$$
>  <COMPOUND>
CCCCN(C)CC(O)Cn1cc(/C=C/C(=O)c2cccs2)c2ccccc21 (stereo not drawn)

>  <OBSERVED RESULT>
3

$$$$
>  <COMPOUND>
O=C(Nc1nnc(-c2ccccc2Cl)o1)c1ccc(S(=O)(=O)N2CCCCCC2)cc1

>  <OBSERVED RESULT>
1

$$$$
>  <COMPOUND>
CC1CCCCC1NC(=S)Nc1ccc(SC(F)F)cc1 (stereo not drawn)

>  <OBSERVED RESULT>
1

$$$$
>  <COMPOUND>
CC1CCCC(NC(=S)Nc2ccc(SC(F)F)cc2)C1C (stereo not drawn)

>  <OBSERVED RESULT>
1

$$$$
>  <COMPOUND>
CCOC(=O)C1=NN(C(=O)c2ccc(C)cc2)C(O)(c2ccc(Cl)cc2)C1 (stereo not drawn)

>  <OBSERVED RESULT>
1

$$$$
>  <COMPOUND>
CC1CC(C)CN(C(=S)Nc2ccc(SC(F)F)cc2)C1 (stereo not drawn)

>  <OBSERVED RESULT>
1

$$$$

The compound identified as CCOC(=O)CN(C(=O)CSc1nnc(Cc2ccccc2)n1-c1ccc(C)cc1)c1ccccc1 registered its manual score at -1

The compound identified as O=c1c(-c2ccc(Cl)cc2)[n+]([O-])c2ccccc2n1O registered its manual score at 2

The compound identified as Cc1ccc(SC(C)C(=O)Nc2ccc(S(=O)(=O)N3CCOCC3)cc2)cc1 (stereo not drawn) registered its manual score at 0
